Assay: physchem
Conditions: buffer
Description: Aqueous solubility in water
Measurement Label: solubility

{"Molecule Smiles": "CN(C)CCCOc1cc2c(cc1O)c1c3c(c(-c4ccccc4Cl)cc1n2C)C(=O)NC3=O.Cl", "solubility": "2200 µg/mL"}

For record "O=C1NC(=O)c2c1c(-c1ccccc1Cl)cc1c2c2cc(O)ccc2n1CCCO" the listed solubility is < 3 µg/mL

* * *

Experiment: physchem
Description: Dissociation constant, pKa of the compound
Each entry below carries its recorded pKa.
Just the number, please, no unit after it.

{"Molecule Smiles": "CN(C)CCCOc1cc2c(cc1O)c1c3c(c(-c4ccccc4Cl)cc1n2C)C(=O)NC3=O", "pKa": 9.5}
{"Molecule Smiles": "Cn1c2cc(OCCCN3CCOCC3)c(O)cc2c2c3c(c(-c4ccccc4Cl)cc21)C(=O)NC3=O", "pKa": 7.8}
{"Molecule Smiles": "Cn1c2cc(S(=O)(=O)NCCN3CCCC3)c(O)cc2c2c3c(c(-c4ccccc4Cl)cc21)C(=O)NC3=O", "pKa": 10.5}
{"Molecule Smiles": "Cn1c2cc(S(=O)(=O)CCCN3CCCC3)c(O)cc2c2c3c(c(-c4ccccc4Cl)cc21)C(=O)NC3=O", "pKa": 10.5}
{"Molecule Smiles": "CN(C)CCCOc1cc2c(cc1O)c1c3c(c(-c4ccccc4Cl)cc1n2CCO)C(=O)NC3=O", "pKa": 9.5}
{"Molecule Smiles": "O=C1NC(=O)c2c1c(-c1ccccc1Cl)cc1[nH]c3cc(CCCCN4CCCC4)c(O)cc3c21", "pKa": 10.5}
{"Molecule Smiles": "O=C1NC(=O)c2c1c(-c1ccccc1Cl)cc1[nH]c3cc(CCCCN4CCOCC4)c(O)cc3c21", "pKa": 7.8}

For record "Cn1c2cc(OCCCN3CCCC3)c(O)cc2c2c3c(c(-c4ccccc4Cl)cc21)C(=O)NC3=O" the listed pKa is 10.5

* * *

Wee1-like protein kinase (Homo sapiens, UniProt P30291) IC50 data
Sequence (P30291 whole entry): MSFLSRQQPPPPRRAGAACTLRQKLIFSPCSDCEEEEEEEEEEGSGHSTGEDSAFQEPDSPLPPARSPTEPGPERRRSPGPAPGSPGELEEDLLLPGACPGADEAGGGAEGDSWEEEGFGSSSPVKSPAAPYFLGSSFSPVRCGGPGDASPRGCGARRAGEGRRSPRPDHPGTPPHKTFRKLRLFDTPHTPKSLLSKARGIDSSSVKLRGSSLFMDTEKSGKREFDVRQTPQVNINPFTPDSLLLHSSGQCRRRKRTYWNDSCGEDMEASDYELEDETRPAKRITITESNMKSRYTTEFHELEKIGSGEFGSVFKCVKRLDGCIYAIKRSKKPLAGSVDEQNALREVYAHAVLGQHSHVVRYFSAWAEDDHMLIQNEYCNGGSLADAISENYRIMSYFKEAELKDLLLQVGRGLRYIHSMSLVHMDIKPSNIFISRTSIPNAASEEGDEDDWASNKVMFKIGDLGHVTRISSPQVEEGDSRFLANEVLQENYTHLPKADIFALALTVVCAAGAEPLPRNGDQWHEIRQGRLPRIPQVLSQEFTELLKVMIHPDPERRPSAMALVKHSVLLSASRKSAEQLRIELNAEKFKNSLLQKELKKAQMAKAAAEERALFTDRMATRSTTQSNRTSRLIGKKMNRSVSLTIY
# number only, unit nM dropped from output

Consider the following illustrative entries.
{"Molecule Smiles": "Cn1c2cc(CCCCN3CCOCC3)c(O)cc2c2c3c(c(-c4ccccc4Cl)cc21)C(=O)NC3=O", "Numeric Value": 30}
{"Molecule Smiles": "O=C1NC(=O)c2c1c(-c1ccccc1Cl)cc1c2c2cc(O)c(OCCCN3CCCC3)cc2n1CCO", "Numeric Value": 24}
{"Molecule Smiles": "O=C1NC(=O)c2c1c(-c1ccccc1Cl)cc1[nH]c3cc(OCCCN4CCOCC4)c(O)cc3c21", "Numeric Value": 26}
{"Molecule Smiles": "O=C1NC(=O)c2c1c(-c1ccccc1Cl)cc1[nH]c3cc(OCCCN4CCCC4)c(O)cc3c21", "Numeric Value": 35}
{"Molecule Smiles": "Cn1c2cc(S(=O)(=O)NCCN3CCCC3)c(O)cc2c2c3c(c(-c4ccccc4Cl)cc21)C(=O)NC3=O", "Numeric Value": 46}

Attention now shifts to the item below.
Entry "O=C1NC(=O)c2c1c(-c1ccccc1Cl)cc1c2c2cc(O)c(CCCCN3CCOCC3)cc2n1CCO" , Wee1-like protein kinase (Homo sapiens, UniProt P30291) data, IC50 value: 19

* * *

Experiment: physchem
Measurement Label: pKa
Just the number, please, no unit after it.

Consider the following illustrative entries.
{"Compound": "Cn1c2cc(CCCCN3CCCC3)c(O)cc2c2c3c(c(-c4ccccc4Cl)cc21)C(=O)NC3=O", "Measurement Label": "pKa", "Numeric Value": 10.5}
{"Compound": "O=C1NC(=O)c2c1c(-c1ccccc1Cl)cc1c2c2cc(O)c(OCCCN3CCOCC3)cc2n1CCO", "Measurement Label": "pKa", "Numeric Value": 7.8}
{"Compound": "Cn1c2cc([S+]([O-])CCCN3CCCC3)c(O)cc2c2c3c(c(-c4ccccc4Cl)cc21)C(=O)NC3=O (configuration not stated)", "Measurement Label": "pKa", "Numeric Value": 10.5}
{"Compound": "CN(C)CCCOc1cc2[nH]c3cc(-c4ccccc4Cl)c4c(c3c2cc1O)C(=O)NC4=O", "Measurement Label": "pKa", "Numeric Value": 9.5}
{"Compound": "CN(C)CCCCc1cc2c(cc1O)c1c3c(c(-c4ccccc4Cl)cc1n2C)C(=O)NC3=O", "Measurement Label": "pKa", "Numeric Value": 9.5}

For record "CN(C)CCCCc1cc2[nH]c3cc(-c4ccccc4Cl)c4c(c3c2cc1O)C(=O)NC4=O" the listed pKa is 9.5

For record "Cn1c2cc(SCCCN3CCCC3)c(O)cc2c2c3c(c(-c4ccccc4Cl)cc21)C(=O)NC3=O" the listed pKa is 10.5
